target: wild-type human Kv1.1 (Homo sapiens, UniProt Q09470); construct: expressed in transfected cells; host or cells: Xenopus laevis oocytes injected with cRNA (pTLNx vector); test: Two-electrode voltage clamp of oocytes expressing wild-type Kv1.1; type: cell-based; settings: EC50 for peak current augmentation, at −40 mV, Fig. 10
Sequence (Q09470 whole entry): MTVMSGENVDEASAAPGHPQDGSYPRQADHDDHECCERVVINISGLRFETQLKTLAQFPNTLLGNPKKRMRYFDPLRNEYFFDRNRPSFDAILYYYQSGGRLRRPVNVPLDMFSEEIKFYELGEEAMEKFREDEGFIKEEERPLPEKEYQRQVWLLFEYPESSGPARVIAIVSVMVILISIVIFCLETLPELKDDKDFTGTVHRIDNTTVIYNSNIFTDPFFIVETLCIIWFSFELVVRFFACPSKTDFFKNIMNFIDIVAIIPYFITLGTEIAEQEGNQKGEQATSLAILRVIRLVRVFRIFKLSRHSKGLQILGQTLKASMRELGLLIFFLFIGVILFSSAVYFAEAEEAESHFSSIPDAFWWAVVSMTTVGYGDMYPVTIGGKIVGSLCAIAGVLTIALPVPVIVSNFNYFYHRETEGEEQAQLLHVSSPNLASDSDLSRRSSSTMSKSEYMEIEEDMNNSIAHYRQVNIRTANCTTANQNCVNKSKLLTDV
reported_endpoint: EC50 (nM)
One number for each entry, in nM.

Q) Request the reported EC50 associated with O=C(O)c1cc(O)c(O)c(O)c1
A) 379

* * *

molecular target: wild-type human Kv1.1 (Homo sapiens); construct: expressed in transfected cells; host or cells: Xenopus laevis oocytes injected with cRNA (pTLNx vector); test: Two-electrode voltage clamp of oocytes expressing wild-type Kv1.1; format: cell-based; conditions: EC50 for ΔV0.5activation, dose response, Fig. 4
reported_endpoint: EC50
Could you kindly put the unit after your number?

Q) Which EC50 is reported with wild-type human Kv1.1 (Homo sapiens) for this entry: O=C(O)c1cc(O)c(O)c(O)c1 [gallic acid] ?
A) 54 nM
